Where do the numbers come from? From ChEMBL document CHEMBL1152954.

Listed below: pIC50 values for each entry.
Biological target: DnaC helicase (Staphylococcus aureus)
Sequence (Q9AQH7 whole entry): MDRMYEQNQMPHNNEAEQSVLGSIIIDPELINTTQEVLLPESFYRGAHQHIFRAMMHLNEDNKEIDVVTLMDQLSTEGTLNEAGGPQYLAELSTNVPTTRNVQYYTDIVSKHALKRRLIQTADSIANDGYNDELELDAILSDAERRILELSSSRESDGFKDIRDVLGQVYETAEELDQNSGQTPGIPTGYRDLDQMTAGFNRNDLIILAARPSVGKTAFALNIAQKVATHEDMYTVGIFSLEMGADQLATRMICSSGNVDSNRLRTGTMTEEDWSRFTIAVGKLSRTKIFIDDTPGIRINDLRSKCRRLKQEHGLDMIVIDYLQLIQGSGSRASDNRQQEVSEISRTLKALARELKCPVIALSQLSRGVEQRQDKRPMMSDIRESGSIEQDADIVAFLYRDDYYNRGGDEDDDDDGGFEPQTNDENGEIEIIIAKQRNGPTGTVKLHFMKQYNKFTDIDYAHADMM
Remember, pIC50 is on a log scale: it is -log10 of the molar concentration.

Recorded results for 5 molecules are shown here.
- smiles-string: "COc1cc(C(=O)Nc2nc3ccc(S(=O)(=O)N4CCOCC4)cc3s2)cc(OC)c1OC"
  pIC50: 4.82
- smiles-string: "COc1cc(/C=C2\\SC(=S)N(c3cccc(C(F)(F)F)c3)C2=O)cc(OC)c1O"
  pIC50: 5.40
- smiles-string: "Cc1ccc(C)n1-c1ccc(SCC(=O)O)cc1"
  pIC50: 5.40
- smiles-string: "Cc1nc(-c2c[nH]c(C(=O)O)c2)cs1"
  pIC50: 4.92
- smiles-string: "Nn1c(Cc2ccccc2F)nnc1SCc1cc(=O)oc2cc(O)c(O)cc12"
  pIC50: 4.82

Given Cn1c(SCc2cc(=O)oc3cc(O)c(O)cc23)nc2ccccc21 , state its recorded pIC50.
4.82

Follow-up entry: Cc1c(CCC(=O)O)c(=O)oc2c(C)c(OCc3ccc(Br)cc3F)ccc12
3.74

Follow-up item: Cc1c(Cc2ccccc2)c(=O)oc2c(O)c(O)ccc12
4.38

Now this one: COc1cc(/C=C2\SC(=S)N(c3ccc(Cl)cc3)C2=O)cc(OC)c1O
5.70

What about COc1cc(/C=C2\SC(=S)N(c3ccc([N+](=O)[O-])cc3)C2=O)cc(OC)c1O ?
6.15

Field entry: CCOc1ccccc1C(=O)Nc1nc2ccc(S(N)(=O)=O)cc2s1
4.25
